# TEST SYSTEM: PI3Kδ (Homo sapiens, UniProt O00329)
# Construct: The protein is full length and co-expressed with untagged PIK3R1; GST; purchased Invitrogen PV5274
# Sequence (O00329 whole entry): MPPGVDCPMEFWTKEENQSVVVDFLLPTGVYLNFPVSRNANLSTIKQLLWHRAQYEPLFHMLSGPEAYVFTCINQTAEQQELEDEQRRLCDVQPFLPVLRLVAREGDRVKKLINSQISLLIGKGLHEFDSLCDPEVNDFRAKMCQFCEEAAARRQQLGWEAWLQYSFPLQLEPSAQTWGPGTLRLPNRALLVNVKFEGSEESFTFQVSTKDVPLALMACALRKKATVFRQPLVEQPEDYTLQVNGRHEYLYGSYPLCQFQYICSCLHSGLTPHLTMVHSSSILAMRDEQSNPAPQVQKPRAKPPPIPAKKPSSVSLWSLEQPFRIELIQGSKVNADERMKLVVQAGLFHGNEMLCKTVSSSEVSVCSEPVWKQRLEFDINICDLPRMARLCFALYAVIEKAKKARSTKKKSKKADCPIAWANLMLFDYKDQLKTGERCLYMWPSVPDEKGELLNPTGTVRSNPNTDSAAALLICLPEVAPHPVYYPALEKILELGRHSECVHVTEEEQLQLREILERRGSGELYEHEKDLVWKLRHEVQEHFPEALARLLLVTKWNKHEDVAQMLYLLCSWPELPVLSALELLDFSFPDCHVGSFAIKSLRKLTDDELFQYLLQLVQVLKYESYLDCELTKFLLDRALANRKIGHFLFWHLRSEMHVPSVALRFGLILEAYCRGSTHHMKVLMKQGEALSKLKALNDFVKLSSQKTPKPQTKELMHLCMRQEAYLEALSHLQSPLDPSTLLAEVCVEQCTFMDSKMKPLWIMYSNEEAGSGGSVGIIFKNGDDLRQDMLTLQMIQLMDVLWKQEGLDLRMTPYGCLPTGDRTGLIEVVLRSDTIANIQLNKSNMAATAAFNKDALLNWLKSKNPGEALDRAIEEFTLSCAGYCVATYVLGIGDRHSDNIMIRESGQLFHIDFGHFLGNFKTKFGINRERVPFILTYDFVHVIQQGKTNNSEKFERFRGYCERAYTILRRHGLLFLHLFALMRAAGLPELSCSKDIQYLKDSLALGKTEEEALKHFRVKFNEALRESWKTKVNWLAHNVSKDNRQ
# Sequence (P27986 whole entry partner): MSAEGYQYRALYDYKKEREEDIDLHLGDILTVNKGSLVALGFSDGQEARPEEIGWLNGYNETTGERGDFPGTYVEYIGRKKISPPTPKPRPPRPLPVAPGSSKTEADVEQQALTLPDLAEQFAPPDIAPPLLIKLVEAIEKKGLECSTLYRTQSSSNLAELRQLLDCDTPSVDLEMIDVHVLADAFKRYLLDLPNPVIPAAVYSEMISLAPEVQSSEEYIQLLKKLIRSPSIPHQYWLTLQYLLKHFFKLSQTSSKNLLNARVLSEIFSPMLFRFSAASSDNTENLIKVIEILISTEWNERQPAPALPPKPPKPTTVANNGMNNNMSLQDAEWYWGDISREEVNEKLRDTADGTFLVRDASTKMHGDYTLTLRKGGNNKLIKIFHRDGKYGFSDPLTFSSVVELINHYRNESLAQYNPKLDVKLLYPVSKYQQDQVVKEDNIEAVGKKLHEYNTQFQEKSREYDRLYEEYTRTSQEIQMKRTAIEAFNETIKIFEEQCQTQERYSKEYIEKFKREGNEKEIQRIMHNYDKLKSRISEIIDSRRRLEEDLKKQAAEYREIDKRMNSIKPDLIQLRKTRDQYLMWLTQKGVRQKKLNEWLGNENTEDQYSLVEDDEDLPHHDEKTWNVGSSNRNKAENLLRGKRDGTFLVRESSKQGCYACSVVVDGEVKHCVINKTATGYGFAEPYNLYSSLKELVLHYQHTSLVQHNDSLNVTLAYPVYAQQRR
# EXPERIMENT DESCRIPTION: PI3Kδ inhibition, modified PIK3CD Adapta TR-FRET assay
# Type: biochemical
# COND: recombinant GST-tagged full length PIK3CD co-expressed with PIK3R1 (p85α); 2 μM ATP, 50 μM PIP2; read-out: PI3Kδ Inhibition (pIC50) (converted)
OBSERVABLE: IC50 (nM)

Known results for compounds:
The recorded IC50 for COC(=O)c1cc(N2C[C@@H]3COCCN3c3nc(-c4cccc5[nH]ccc45)ncc32)cnc1OC [Example 202] is 2.51

The value of IC50 measured for the compound CNC(=O)c1ccc(-c2ncc3c(n2)N2CCOCC2C(=O)N3Cc2ccc(S(C)(=O)=O)cc2)cn1 (centres unmarked) [Example 109] turned out to be 7940

The value of IC50 measured for the compound c1cc(-c2ncc3c(n2)N2CCOC[C@H]2CN3c2cccc3[nH]ccc23)c2cc[nH]c2c1 [Example 193] turned out to be 794

The compound CS(=O)(=O)c1ccc(CN2C(=O)C3COCCN3c3nc(-c4c[nH]c5ncccc45)ncc32)cc1 (centres unmarked) [Example 137] showed IC50 equal to 501

Sample NC(=O)c1cccc(CN2CC3COCCN3c3nc(-c4cccc5[nH]ccc45)ncc32)c1 (centres unmarked) [Example 76] ; IC50 observed: 31.6

Entry CS(=O)(=O)c1ccc(CN2C(=O)C3COCCN3c3nc(-c4ccc(N)c(N)c4)ncc32)cc1 (centres unmarked) [Example 131] — recorded IC50 = 126

Measured IC50, Cc1cccc(CN2CC3COCCN3c3nc(-c4cccc5[nH]ccc45)ncc32)n1 (centres unmarked) [Example 80] : 63.1

The measured IC50 associated with O=C(CN1C[C@@H]2COCCN2c2nc(-c3cncc4[nH]ccc34)ncc21)NCC1CCOCC1 [Example 174] reads 7.94

P. COC(=O)CCCN1C[C@@H]2COCCN2c2nc(-c3cccc4[nH]ccc34)ncc21 [Example 195]
Q. O=C(CN1C[C@@H]2COCCN2c2nc(-c3ccsc3)ncc21)NCC1CCOCC1 [Example 223]
R. O=C(CN1C[C@@H]2COCCN2c2nc(-c3ccc(CO)cc3)ncc21)NCC1CCOCC1 [Example 214]
Input: List items by IC50 in falling order. Give your ranking as a list of the labels in the requested order.
Output: R, Q, P
(R: 2000 nM, Q: 794 nM, P: 3.16 nM)

1. O=C(CN1C[C@@H]2COCCN2c2nc(-c3cccc4[nH]ccc34)ncc21)NCC1CC1 [Example 70]
2. CC(=O)N1CC2COCCN2c2nc(-n3c(C)nc4ccccc43)ncc21 (centres unmarked) [Example 56]
3. CC(C)(C)OC(=O)CN1C[C@@H]2COCCN2c2nc(-c3cccc4[nH]ccc34)ncc21 [Example 68]
4. Cc1c[nH]c2c(F)ccc(-c3ncc4c(n3)N3CCOCC3CN4Cc3ccc(S(C)(=O)=O)cc3)c12 (centres unmarked) [Example 16]
5. CC(C)(C)OC(=O)N[C@H]1CC[C@H](CN2CC3COCCN3c3nc(-c4cccc5[nH]ccc45)ncc32)CC1 (some centres unmarked) [Example 57]
Input: // ranking: key=IC50, reverse=True Lab note: record answer as labels in requested order.
Output: 4, 2, 5, 1, 3
(4: 6310 nM, 2: 3160 nM, 5: 794 nM, 1: 200 nM, 3: 50.1 nM)

A. Cc1nnc(CN2C(=O)C3COCCN3c3nc(-n4c(C(F)F)nc5ccccc54)ncc32)o1 (centres unmarked) [Example 157]
B. O=C1Nc2cnc(-c3cccc4[nH]ccc34)nc2N2CCOC[C@H]12 (single isomer, unassigned) [Example 149]
Input: Compare the recorded IC50 of A and B ; state which is larger. Which one? Tell me its label.
Output: B

Numbers sourced from patent US8791107B2.
